system.name: GIRK1/2 channels (Mus musculus, UniProt P48542+P63250)
assay.remarks: Inhibition of basal GIRK currents, Xenopus oocyte expression assay, two-electrode voltage clamp
condition.summary: concentration reducing basal GIRK currents by 50%
Procedure: Microelectrodes were filled with 3 M KCl. […] The data are expressed as mean ± SEM, and n is the number of oocytes tested. The statistical analysis of differences between groups was performed using paired t-test, one-way analysis of variance (ANOVA), or two-way ANOVA followed by the Tukey-Kramer post hoc test. Values of P<0.05 were considered statistically significant.
Counter-ions that a name gives are not always drawn.
property.name: IC50 (µM)
Report the value in µM with no unit label.

Enquiry: Field: IC50 (GIRK1/2 channels (Mus musculus, UniProt P48542+P63250)). Entry: CNCC[C@H](Oc1cccc2ccccc12)c1cccs1 [duloxetine, duloxetine hydrochloride]
Return: 28.3

----------
system.name: GIRK1/2 channels (Mus musculus, UniProt P48542+P63250)
assay.remarks: Inhibition of basal GIRK currents, Xenopus oocyte expression assay, two-electrode voltage clamp
condition.summary: basal GIRK currents, −70 mV, hK solution 96 mM K+
Structures can show the parent of a compound that is named as a salt.
property.name: EC50 (µM)
Report the value in µM with no unit label.

Enquiry: Any idea what EC50 was measured for CNCC[C@H](Oc1cccc2ccccc12)c1cccs1 [duloxetine, duloxetine hydrochloride] ?
Return: 14.9

----------
system.name: GIRK1/4 channels (Mus musculus, UniProt P48545+P63250)
Sequence (P63250 1-501): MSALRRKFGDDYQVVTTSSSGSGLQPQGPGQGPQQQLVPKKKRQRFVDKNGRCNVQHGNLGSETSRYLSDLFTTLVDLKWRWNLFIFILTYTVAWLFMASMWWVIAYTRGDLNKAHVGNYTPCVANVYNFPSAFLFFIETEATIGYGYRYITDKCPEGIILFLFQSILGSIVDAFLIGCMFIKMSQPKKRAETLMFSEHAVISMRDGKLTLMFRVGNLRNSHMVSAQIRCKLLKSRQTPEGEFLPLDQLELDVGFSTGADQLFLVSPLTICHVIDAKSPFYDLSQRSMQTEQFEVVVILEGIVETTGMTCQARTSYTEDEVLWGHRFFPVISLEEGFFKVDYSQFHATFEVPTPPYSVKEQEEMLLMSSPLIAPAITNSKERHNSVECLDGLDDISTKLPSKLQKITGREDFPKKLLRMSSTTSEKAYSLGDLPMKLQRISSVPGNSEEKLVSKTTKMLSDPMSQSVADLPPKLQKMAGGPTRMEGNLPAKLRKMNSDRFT
Sequence (P48545 1-419): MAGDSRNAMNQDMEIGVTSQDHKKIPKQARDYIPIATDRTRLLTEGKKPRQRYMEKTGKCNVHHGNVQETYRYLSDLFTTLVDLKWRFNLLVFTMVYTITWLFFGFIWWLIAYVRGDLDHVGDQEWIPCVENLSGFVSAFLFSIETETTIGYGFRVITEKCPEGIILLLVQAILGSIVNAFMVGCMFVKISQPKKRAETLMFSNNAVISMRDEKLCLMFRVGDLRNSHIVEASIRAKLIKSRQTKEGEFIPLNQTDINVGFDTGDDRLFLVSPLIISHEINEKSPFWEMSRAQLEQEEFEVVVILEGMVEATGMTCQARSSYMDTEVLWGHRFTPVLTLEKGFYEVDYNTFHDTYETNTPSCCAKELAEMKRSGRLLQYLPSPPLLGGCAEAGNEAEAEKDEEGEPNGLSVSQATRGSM
assay.remarks: Inhibition of basal GIRK currents, Xenopus oocyte expression assay, two-electrode voltage clamp
condition.summary: basal GIRK currents, −70 mV, hK solution 96 mM K+
Counter-ions that a name gives are not always drawn.
property.name: pEC50
Friendly reminder that pEC50 comes from taking -log10 of the concentration in mol/L.

Enquiry: Any idea what pEC50 was measured for CNCC[C@H](Oc1cccc2ccccc12)c1cccs1 [duloxetine, duloxetine hydrochloride] ?
Return: 4.77
